ASSAY_SYSTEM: T1, monomeric hCD86 ECD (papain-digested hCD86-mIg) (human, UniProt P42081 24-243)
T1 construct: also called monomeric hCD86-mIg ligand; monomeric CD86 ECD
T1 chain: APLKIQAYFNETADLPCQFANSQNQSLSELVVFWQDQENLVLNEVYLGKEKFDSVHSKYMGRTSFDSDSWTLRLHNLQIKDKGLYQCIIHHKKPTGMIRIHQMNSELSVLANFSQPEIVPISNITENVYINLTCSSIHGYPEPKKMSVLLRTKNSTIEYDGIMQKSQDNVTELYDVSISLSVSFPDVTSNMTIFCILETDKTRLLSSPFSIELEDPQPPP
METHOD: SPR Biacore, fusion protein captured, monomeric hCD86 ECD in flow
pKd: −log10 of the molar value.
pKd overview

Enquiry: Param item = D3-27-IgG2 (Fc fusion) MHVAQPAVVLASSRGIASFVCEYESPGKANEVRVTVLRQADSQVTEVCAMTYMKGNELTFLDDPSCTGTFSGNQVNLTIQGLRAMDTGLYICKVELMYPPPYYLGIGNGTQIYVIDPEPCPDSDERKCCVECPPCPAPPVAGPSVFLFPPKPKDTLMISRTPEVTCVVVDVSHEDPEVQFNWYVDGVEVHNAKTKPREEQFNSTFRVVSVLTVVHQDWLNGKEYKCKVSNKGLPAPIEKTISKTKGQPREPQVYTLPPSREEMTKNQVSLTCLVKGFYPSDIAVEWESNGQPENNYKTTPPMLDSDGSFFLYSKLTVDKSRWQQGNVFSCSVMHEALHNHYTQKSLSLSPG ; retrieve measured pKd.
Return: 6.08 to 6.47

Enquiry: Param item = D3-53-IgG2 (Fc fusion) MHVAQPAVVLASSRGIASFVCEYESPGKANEIRVTVLRQAGSQVTEVCAMTYMKGDELTFLDDPSCTGTFSGNQVNLTIQGLRAADTGLYICKVELMYPPPYYEGIGNGTQIYVIDPEPCPDSDERKCCVECPPCPAPPVAGPSVFLFPPKPKDTLMISRTPEVTCVVVDVSHEDPEVQFNWYVDGVEVHNAKTKPREEQFNSTFRVVSVLTVVHQDWLNGKEYKCKVSNKGLPAPIEKTISKTKGQPREPQVYTLPPSREEMTKNQVSLTCLVKGFYPSDIAVEWESNGQPENNYKTTPPMLDSDGSFFLYSKLTVDKSRWQQGNVFSCSVMHEALHNHYTQKSLSLSPG ; retrieve measured pKd.
Return: > 6.47
